Give measured normalised response for each item. Keep answers brief.
tested on: CAL-120; test: normalised response (% of control), CellTox Green; higher = less cell death (100 = DMSO, 0 = benzethonium chloride kill control); settings: incubation time: 72 h
One number for each entry, in %.

In [3]: df
Out[3]:
                                   compound  experimentalsystem         readoutlabel  readoutnumber
0  C[C@]12C=CC(=O)C=C1CC[C@@H]1[C@@H]2[C@@H](O)C[C@@]2(C)[C@H]1CC[C@]2(O)C(=O)CO [Prednisolone] (1000 nM)             CAL-120  normalised response           98.7

Answer for every listed entry: what is its normalised response? The entries follow.
1. CCN(CC)CCNC(=O)c1c(C)[nH]c(/C=C2\C(=O)Nc3ccc(F)cc32)c1C [Sunitinib] (10 nM)
2. COc1cc(CCc2cc(NC(=O)c3ccc(N4CC(C)NC(C)C4)cc3)n[nH]2)cc(OC)c1 (stereo unspecified) [AZD4547] (10 nM)
3. CC/C(=C(\c1ccc(O)cc1)c1ccc(OCCN(C)C)cc1)c1ccccc1 [4-hydroxytamoxifen] (10000 nM)
4. O=C(Nc1c[nH]nc1-c1nc2ccc(CN3CCOCC3)cc2[nH]1)NC1CC1 [AT9283] (100 nM)
5. CNC(=O)c1cc(Oc2ccc(NC(=O)Nc3ccc(Cl)c(C(F)(F)F)c3)cc2)ccn1 [Sorafenib] (1000 nM)

[99.3, 102, 44.5, 84.9, 101]

---

test system: Hs578T; experiment: drug sensitivity score (DSS), CellTox Green (DSS (AUC-based score)); higher = stronger drug effect (viability inhibition or cytotoxicity); extreme values may be limits of the assay; settings: incubation time: 72 h
Give measured drug sensitivity score for each item. Keep answers brief.

>>> print(df.to_string())
                            molecularstring  result
0  CO[C@@H](C(=O)N1Cc2[nH]nc(NC(=O)c3ccc(N4CCN(C)CC4)cc3)c2C1)c1ccccc1    15.2
1          O=S(=O)(c1cccc2cnccc12)N1CCCNCC1       0
2  c1cc(CN2CCCNCCNCCCNCC2)ccc1CN1CCCNCCNCCCNCC1       0
3    O=C(NC[C@H](O)CO)c1ccncc1Nc1ccc(I)cc1F       0
4  Cc1c(CN2CCN(C(=O)[C@H](C)O)CC2)sc2c(N3CCOCC3)nc(-c3cnc(N)nc3)nc12       0

Answer for every listed entry: what is its drug sensitivity score? The entries follow.
1. O=C(Nc1c[nH]nc1-c1nc2ccc(CN3CCOCC3)cc2[nH]1)NC1CC1
2. Cc1c(Cn2c(C)nc3c(C(=O)O)cc(N4CCOCC4)cc32)cccc1C(F)(F)F
3. CNC(=O)c1cc(Oc2ccc(NC(=O)Nc3ccc(Cl)c(C(F)(F)F)c3)cc2)ccn1

1. 0.649
2. 0
3. 0

Entry Nc1ccccc1NC(=O)c1ccc(CNc2nccc(-c3cccnc3)n2)cc1 : reported drug sensitivity score = ?
7.44

---

system: DU-4475; test: drug sensitivity score (DSS), CellTiter-Glo (DSS (AUC-based score)); higher = stronger drug effect (viability inhibition or cytotoxicity); extreme values may be limits of the assay; conditions: incubation time: 72 h
readoutLabel: drug sensitivity score
Numbers only.

>>> df
                                   molecule  experimentalsystem  readoutnumber
0  Cc1cccc(-c2nn3c(c2-c2ccnc4ccc(C(N)=O)cc24)CCC3)n1             DU-4475              0

Answer for every listed entry: what is its drug sensitivity score? The entries follow.
1. CCCCC/C=C/C=C1/C(=O)C=C[C@@H]1C/C=C\CCCC(=O)O [15D-PGJ2]
2. O=C1c2c(O)ccc(O)c2C(=O)c2c(NCCNCCO)ccc(NCCNCCO)c21
3. CC(C)N(CCCNC(=O)Nc1ccc(C(C)(C)C)cc1)C[C@H]1O[C@@H](n2cc(Br)c3c(N)ncnc32)[C@H](O)[C@@H]1O
4. Cc1c(CN2CCN(C(=O)[C@H](C)O)CC2)sc2c(N3CCOCC3)nc(-c3cnc(N)nc3)nc12

1. 0
2. 2.92
3. 0
4. 6.71

Answer for every listed entry: what is its drug sensitivity score? The entries follow.
1. CO[C@@H](C(=O)N1Cc2[nH]nc(NC(=O)c3ccc(N4CCN(C)CC4)cc3)c2C1)c1ccccc1
2. C[C@]12C=CC(=O)C=C1CC[C@@H]1[C@@H]2[C@@H](O)C[C@@]2(C)[C@H]1CC[C@]2(O)C(=O)CO

1. 5.98
2. 0

---

tested on: MFM-223; assay: normalised response (% of control), CellTiter-Glo; higher = more viable cells (100 = DMSO, 0 = benzethonium chloride kill control); settings: incubation time: 72 h
Give measured normalised response for each item. Keep answers brief.
Answers are plain numbers, in %.

A selection of reference data follows.
compound	readoutLabel	readoutNumber
CCC/C=C/C=C/C(=O)O[C@H]1/C(=C/C(=O)OC)C[C@H]2C[C@H]([C@@H](C)O)OC(=O)C[C@H](O)C[C@@H]3C[C@H](OC(C)=O)C(C)(C)[C@](O)(C[C@@H]4C/C(=C/C(=O)OC)C[C@H](/C=C/C(C)(C)[C@]1(O)O2)O4)O3 [Bryostatin 1] (100 nM)	normalised response	104
Cc1c(Cn2c(C)nc3c(C(=O)O)cc(N4CCOCC4)cc32)cccc1C(F)(F)F (10000 nM)	normalised response	102
CC/C(=C(\c1ccc(O)cc1)c1ccc(OCCN(C)C)cc1)c1ccccc1 [4-hydroxytamoxifen] (10000 nM)	normalised response	45.5
O=S(=O)(c1cccc2cnccc12)N1CCCNCC1 [Fasudil] (50000 nM)	normalised response	88.2
CNC(=O)c1cc(Oc2ccc(NC(=O)Nc3ccc(Cl)c(C(F)(F)F)c3)cc2)ccn1 [Sorafenib] (1000 nM)	normalised response	78.6

Pending compound:
Entry Cc1ccc(Nc2nccc(N(C)c3ccc4c(C)n(C)nc4c3)n2)cc1S(N)(=O)=O [Pazopanib] (10000 nM) : reported normalised response = ?
55.8

---

Give measured normalised response for each item. Keep answers brief.
tested on: CAL-51; experiment: normalised response (% of control), CellTox Green; higher = less cell death (100 = DMSO, 0 = benzethonium chloride kill control); settings: incubation time: 72 h
Give bare numbers, in %.

A selection of reference data follows.
>>> print(df.to_string())
                                   compound  readoutunits  readoutnumber
0  C[C@]12O[C@H](C[C@]1(O)CO)n1c3ccccc3c3c4c(c5c6ccccc6n2c5c31)CNC4=O [Lestaurtinib] (10 nM)             %           98.4
1  O=C1c2c(O)ccc(O)c2C(=O)c2c(NCCNCCO)ccc(NCCNCCO)c21 [Mitoxantrone] (10 nM)             %            104
2  Cc1ccc(Nc2nccc(N(C)c3ccc4c(C)n(C)nc4c3)n2)cc1S(N)(=O)=O [Pazopanib] (1000 nM)             %            107
3  Cc1ccc(Nc2nccc(N(C)c3ccc4c(C)n(C)nc4c3)n2)cc1S(N)(=O)=O [Pazopanib] (100 nM)             %            104
4  O=C(Nc1c[nH]nc1-c1nc2ccc(CN3CCOCC3)cc2[nH]1)NC1CC1 [AT9283] (10 nM)             %           61.2
5  COc1cc(CCc2cc(NC(=O)c3ccc(N4CC(C)NC(C)C4)cc3)n[nH]2)cc(OC)c1 (centres undefined) [AZD4547] (100 nM)             %           95.6

Answer for every listed entry: what is its normalised response? The entries follow.
1. COc1cc(CCc2cc(NC(=O)c3ccc(N4CC(C)NC(C)C4)cc3)n[nH]2)cc(OC)c1 (centres undefined) [AZD4547] (1000 nM)
2. C[C@]12C=CC(=O)C=C1CC[C@@H]1[C@@H]2[C@@H](O)C[C@@]2(C)[C@H]1CC[C@]2(O)C(=O)CO [Prednisolone] (10000 nM)
3. CO[C@@H](C(=O)N1Cc2[nH]nc(NC(=O)c3ccc(N4CCN(C)CC4)cc3)c2C1)c1ccccc1 [Danusertib] (100 nM)
4. C[C@]12O[C@H](C[C@]1(O)CO)n1c3ccccc3c3c4c(c5c6ccccc6n2c5c31)CNC4=O [Lestaurtinib] (1000 nM)
5. Cc1c(Cn2c(C)nc3c(C(=O)O)cc(N4CCOCC4)cc32)cccc1C(F)(F)F (100 nM)
6. O=C(NC[C@H](O)CO)c1ccncc1Nc1ccc(I)cc1F [Pimasertib] (100 nM)

1. 96.6
2. 102
3. 62.2
4. 111
5. 86.7
6. 107

Answer for every listed entry: what is its normalised response? The entries follow.
1. Cn1cc(CNCC2CCN(c3ncc(C(=O)NO)cn3)CC2)c2ccccc21 [Quisinostat] (100 nM)
2. Nc1cccc2c1CN(C1CCC(=O)NC1=O)C2=O (centres undefined) [Lenalidomide] (1000 nM)
3. Nc1cccc2c1CN(C1CCC(=O)NC1=O)C2=O (centres undefined) [Lenalidomide] (100 nM)
4. CC(C)N(CCCNC(=O)Nc1ccc(C(C)(C)C)cc1)C[C@H]1O[C@@H](n2cc(Br)c3c(N)ncnc32)[C@H](O)[C@@H]1O [SGC0946] (100 nM)
5. COc1cc(CCc2cc(NC(=O)c3ccc(N4CC(C)NC(C)C4)cc3)n[nH]2)cc(OC)c1 (centres undefined) [AZD4547] (10 nM)

58.5
104
76.4
95.6
95

Answer for every listed entry: what is its normalised response? The entries follow.
1. CC(=O)OC[C@H]1O[C@@H]([S-])[C@H](OC(C)=O)[C@@H](OC(C)=O)[C@@H]1OC(C)=O.CCP(CC)CC.[Au+] [Auranofin] (250 nM)
2. CO[C@@H](C(=O)N1Cc2[nH]nc(NC(=O)c3ccc(N4CCN(C)CC4)cc3)c2C1)c1ccccc1 [Danusertib] (1000 nM)
3. CC/C(=C(\c1ccc(O)cc1)c1ccc(OCCN(C)C)cc1)c1ccccc1 [4-hydroxytamoxifen] (100 nM)
4. CCN(CC)CCNC(=O)c1c(C)[nH]c(/C=C2\C(=O)Nc3ccc(F)cc32)c1C [Sunitinib] (100 nM)
5. Cn1cc(CNCC2CCN(c3ncc(C(=O)NO)cn3)CC2)c2ccccc21 [Quisinostat] (10 nM)
6. C[C@]12C=CC(=O)C=C1CC[C@@H]1[C@@H]2[C@@H](O)C[C@@]2(C)[C@H]1CC[C@]2(O)C(=O)CO [Prednisolone] (100 nM)

1: 80.4; 2: 57.8; 3: 98.1; 4: 86.5; 5: 126; 6: 117

Entry CCCCC/C=C/C=C1/C(=O)C=C[C@@H]1C/C=C\CCCC(=O)O [15D-PGJ2] (80 nM) : reported normalised response = ?
113
